Reported DC50 is given for each of the following compounds.
Target Or System: CDK13 (Homo sapiens, UniProt Q14004)
Sequence (Q14004 whole entry): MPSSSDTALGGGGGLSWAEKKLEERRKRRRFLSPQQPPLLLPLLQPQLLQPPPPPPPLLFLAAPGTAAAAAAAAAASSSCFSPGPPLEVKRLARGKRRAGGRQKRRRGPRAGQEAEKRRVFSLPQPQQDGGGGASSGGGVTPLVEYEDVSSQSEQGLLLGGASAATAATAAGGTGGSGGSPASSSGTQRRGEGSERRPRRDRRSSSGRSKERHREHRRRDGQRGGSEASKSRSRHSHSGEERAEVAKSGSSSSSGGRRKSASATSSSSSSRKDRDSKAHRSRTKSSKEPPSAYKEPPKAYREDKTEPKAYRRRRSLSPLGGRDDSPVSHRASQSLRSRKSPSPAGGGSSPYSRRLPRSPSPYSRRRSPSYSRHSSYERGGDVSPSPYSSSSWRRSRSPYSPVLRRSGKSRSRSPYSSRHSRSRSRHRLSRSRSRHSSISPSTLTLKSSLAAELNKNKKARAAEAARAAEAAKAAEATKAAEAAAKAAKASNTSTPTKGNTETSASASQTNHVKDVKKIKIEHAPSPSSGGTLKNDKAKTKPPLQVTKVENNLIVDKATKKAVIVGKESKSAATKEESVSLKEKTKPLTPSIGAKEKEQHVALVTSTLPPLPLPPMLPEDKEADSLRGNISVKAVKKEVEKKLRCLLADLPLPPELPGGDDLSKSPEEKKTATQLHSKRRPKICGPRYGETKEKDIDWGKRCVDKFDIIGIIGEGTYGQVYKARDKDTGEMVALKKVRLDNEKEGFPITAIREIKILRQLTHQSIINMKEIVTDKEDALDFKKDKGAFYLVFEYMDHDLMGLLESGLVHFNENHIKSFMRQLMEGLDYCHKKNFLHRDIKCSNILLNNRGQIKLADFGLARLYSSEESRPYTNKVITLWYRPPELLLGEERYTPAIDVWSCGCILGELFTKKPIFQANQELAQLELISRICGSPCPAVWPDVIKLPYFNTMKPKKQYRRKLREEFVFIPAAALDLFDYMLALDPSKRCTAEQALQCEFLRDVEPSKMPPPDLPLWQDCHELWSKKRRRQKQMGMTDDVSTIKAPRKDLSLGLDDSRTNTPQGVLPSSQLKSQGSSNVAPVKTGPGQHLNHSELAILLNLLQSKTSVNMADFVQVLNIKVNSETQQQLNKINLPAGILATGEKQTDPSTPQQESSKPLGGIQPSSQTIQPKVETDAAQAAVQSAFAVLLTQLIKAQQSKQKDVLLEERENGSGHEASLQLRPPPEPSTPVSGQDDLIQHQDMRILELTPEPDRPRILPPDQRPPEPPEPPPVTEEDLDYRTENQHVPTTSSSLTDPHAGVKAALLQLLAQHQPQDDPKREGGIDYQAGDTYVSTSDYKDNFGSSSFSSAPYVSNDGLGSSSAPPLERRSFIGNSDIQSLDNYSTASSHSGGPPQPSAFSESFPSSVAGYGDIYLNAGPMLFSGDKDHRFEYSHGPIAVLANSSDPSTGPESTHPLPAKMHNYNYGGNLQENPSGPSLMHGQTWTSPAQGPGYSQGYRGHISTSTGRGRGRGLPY
Sequence (O75909 whole entry partner): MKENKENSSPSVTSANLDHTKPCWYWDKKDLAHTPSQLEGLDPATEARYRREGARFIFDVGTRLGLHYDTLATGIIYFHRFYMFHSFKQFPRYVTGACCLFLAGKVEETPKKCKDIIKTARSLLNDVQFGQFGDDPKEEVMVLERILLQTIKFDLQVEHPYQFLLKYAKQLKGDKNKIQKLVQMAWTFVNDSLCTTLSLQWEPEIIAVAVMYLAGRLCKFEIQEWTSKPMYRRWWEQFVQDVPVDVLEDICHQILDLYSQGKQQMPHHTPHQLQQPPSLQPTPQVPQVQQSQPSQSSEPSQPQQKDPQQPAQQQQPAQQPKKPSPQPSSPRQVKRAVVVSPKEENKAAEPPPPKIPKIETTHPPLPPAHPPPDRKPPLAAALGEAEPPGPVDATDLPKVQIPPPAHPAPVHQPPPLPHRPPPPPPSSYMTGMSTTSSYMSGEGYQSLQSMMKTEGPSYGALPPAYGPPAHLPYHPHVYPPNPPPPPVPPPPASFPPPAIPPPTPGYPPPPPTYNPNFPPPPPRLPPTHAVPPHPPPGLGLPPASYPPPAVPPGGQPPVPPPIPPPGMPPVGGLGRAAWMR
Protocol Text: Western blot degradation of CDK13 (Example 2)
Type: cell-based
Design: degradation of CDK12/13 protein in leukemia cells KASUMI-1, MV4-11, and Jurkat; endogenous in cells
Assay Setup: DC50 classes; cell line not given; read-out: CDK13 degradation Activity

Some solved entries appear below for comparison.
N#Cc1ccc(N[C@H]2CC[C@H](N(C(=O)NCc3ccccc3)c3ccc(N4CCN(CCOCCOCCOCCNc5cccc6c5C(=O)N(C5CCC(=O)NC5=O)C6=O)CC4)cc3)CC2)nc1 (some centres unmarked) : 1000 to 3000 nM
Cc1ncsc1-c1ccc([C@H](C)NC(=O)[C@@H]2C[C@@H](O)CN2C(=O)[C@@H](NC(=O)CN2CCN(c3ncc(-c4ccc(N(C(=O)NCc5ccccc5)[C@H]5CC[C@H](Nc6ccc(C#N)cn6)CC5)cc4)cn3)CC2)C(C)(C)C)cc1 [Formula 85] : < 100 nM
Cc1ncsc1-c1ccc([C@H](C)NC(=O)[C@@H]2C[C@@H](O)CN2C(=O)[C@@H](NC(=O)CN2CCN(c3ccc(N(C(=O)NCc4ccccc4)[C@H]4CC[C@H](Nc5ccc(C#N)cn5)CC4)cc3)CC2)C(C)(C)C)cc1 : 1000 to 3000 nM
Cc1ncsc1-c1ccc([C@H](C)NC(=O)[C@@H]2C[C@@H](O)CN2C(=O)[C@@H](NC(=O)COc2ccc(-c3ccc(N(C(=O)NCc4ccccc4)[C@H]4CC[C@H](Nc5ccc(C#N)cn5)CC4)cc3)cn2)C(C)(C)C)cc1 : 500 to 1000 nM
Cc1ncsc1-c1ccc([C@H](C)NC(=O)[C@@H]2C[C@@H](O)CN2C(=O)[C@@H](NC(=O)CC#CC2CCN(c3ccc(N(C(=O)NCc4ccccc4)[C@H]4CC[C@H](Nc5ccc(C#N)cn5)CC4)cc3)CC2)C(C)(C)C)cc1 : 3000 to 10000 nM

Input line: Quick check: DC50 of N#Cc1ccc(N[C@H]2CC[C@H](N(C(=O)NCc3ccccc3)c3ccc(-c4ccc(=O)n(CCOCCNc5cccc6c5C(=O)N(C5CCC(=O)NC5=O)C6=O)c4)cc3)CC2)nc1 (some centres unmarked) ?
Output line: 500 to 1000 nM

Input line: Quick check: DC50 of Cc1ncsc1-c1ccc([C@H](C)NC(=O)[C@@H]2C[C@@H](O)CN2C(=O)[C@@H](NC(=O)CN2CCN(c3ncc(-c4ccc(N(C(=O)NCc5ccccc5)[C@H]5CC[C@H](Nc6ccc(C#N)cn6)CC5)cc4)cn3)CC2)C(C)(C)C)cc1 [Formula 84] ?
Output line: < 100 nM

Input line: Quick check: DC50 of N#Cc1ccc(NC2CCC(N(C(=O)NCc3ccccc3)c3ccc(-c4ccc(=O)n(CCOCCOCCNc5cccc6c5C(=O)N(C5CCC(=O)NC5=O)C6=O)c4)cc3)CC2)nc1 (centres unmarked) ?
Output line: 1000 to 3000 nM
